meta.source: paper PMC9455983

Target: delta-opioid receptor (DOR) (Rattus norvegicus, UniProt P33533)
Construct: Rat cortices were homogenized using 50 mM Tris, pH 7.4, 10 mM MgCl2-6H2O, 200 µM PMSF; from tissue; host or cells: rat cortex membranes
Sequence (P33533 whole entry): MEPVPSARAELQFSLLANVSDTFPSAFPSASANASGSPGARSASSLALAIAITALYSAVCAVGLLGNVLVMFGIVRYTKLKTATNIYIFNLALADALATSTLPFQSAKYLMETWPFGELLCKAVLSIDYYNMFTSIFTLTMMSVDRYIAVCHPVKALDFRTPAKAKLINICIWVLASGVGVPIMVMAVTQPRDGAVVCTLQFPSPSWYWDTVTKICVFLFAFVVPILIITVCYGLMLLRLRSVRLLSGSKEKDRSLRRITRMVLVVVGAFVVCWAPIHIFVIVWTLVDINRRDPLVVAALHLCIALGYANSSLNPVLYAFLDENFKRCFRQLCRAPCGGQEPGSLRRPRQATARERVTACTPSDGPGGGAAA
Assay: DOR radioligand competition binding assay ([3H]-DPDPE)
Settings: Delta screening results, first Ki column; unit not printed (apparently M); read-out: Ki (first column)
# if measured Ki < 5 µM: y  # else: n

A selection of reference data follows.
molecule=C[C@H]1CNC(=N)N1C[C@H](Cc1ccc(O)cc1)N1C[C@H](Cc2ccc(O)cc2)NC1=N targetofassay="delta-opioid receptor (DOR) (Rattus norvegicus, UniProt P33533)" labelvalue=y
molecule=CC(C)C[C@@H](CN1C(=N)NC[C@@H]1C)N1C[C@H](Cc2ccc(O)cc2)NC1=N targetofassay="delta-opioid receptor (DOR) (Rattus norvegicus, UniProt P33533)" labelvalue=n
molecule=Cc1cc(O)cc(C)c1C[C@H]1CN([C@@H](Cc2ccccc2)CN2C(=N)NC[C@@H]2C)C(=N)N1 targetofassay="delta-opioid receptor (DOR) (Rattus norvegicus, UniProt P33533)" labelvalue=y
molecule=CC(C)C[C@H]1CN([C@@H](CC(C)C)CN2C(=N)NC[C@@H]2C)C(=N)N1 targetofassay="delta-opioid receptor (DOR) (Rattus norvegicus, UniProt P33533)" labelvalue=n
molecule=Cc1cc(O)cc(C)c1C[C@H]1CNC(=N)N1C[C@H](Cc1ccccc1)N1C[C@H](Cc2ccc(O)cc2)NC1=N targetofassay="delta-opioid receptor (DOR) (Rattus norvegicus, UniProt P33533)" labelvalue=y
molecule=N=C1NC[C@H](Cc2ccc(O)cc2)N1C[C@H](Cc1ccccc1)N1C[C@H](Cc2ccc(O)cc2)NC1=N targetofassay="delta-opioid receptor (DOR) (Rattus norvegicus, UniProt P33533)" labelvalue=n
molecule=Cc1cc(O)cc(C)c1C[C@H]1CN([C@@H](Cc2c(C)cc(O)cc2C)CN2C(=N)NC[C@@H]2Cc2ccccc2)C(=N)N1 targetofassay="delta-opioid receptor (DOR) (Rattus norvegicus, UniProt P33533)" labelvalue=y
molecule=N=C1NC[C@H](Cc2ccccc2)N1C[C@H](Cc1ccc(O)cc1)N1C[C@H](Cc2ccccc2)NC1=N targetofassay="delta-opioid receptor (DOR) (Rattus norvegicus, UniProt P33533)" labelvalue=n

Qu. # strict comparison: is reported Ki < 5 µM? input = Cc1cc(O)cc(C)c1C[C@@H](CN1C(=N)NC[C@@H]1Cc1ccccc1)N1C[C@H](CC(C)C)NC1=N
Ans. y

Qu. Does the reported Ki of Cc1cc(O)cc(C)c1C[C@H]1CN([C@@H](Cc2ccccc2)CN2C(=N)NC[C@@H]2Cc2ccc(O)cc2)C(=N)N1 stay below 5 µM?
Ans. y

Qu. I wonder whether Cc1cc(O)cc(C)c1C[C@@H](CN1C(=N)NC[C@@H]1Cc1ccc(O)cc1)N1C[C@H](CC(C)C)NC1=N has Ki below 5 µM. Can you tell?
Ans. y

Qu. Given Cc1cc(O)cc(C)c1C[C@@H](CN1C(=N)NC[C@@H]1C)N1C[C@H](CC(C)C)NC1=N , is recorded Ki strictly lower than 5 µM?
Ans. y

Qu. Answer whether the compound N=C1NC[C@H](Cc2ccc(O)cc2)N1C[C@H](Cc1ccccc1)N1C[C@H](Cc2ccccc2)NC1=N has Ki strictly less than 5 µM
Ans. n

Qu. Dear colleague, could you confirm whether Ki of Cc1cc(O)cc(C)c1C[C@H]1CNC(=N)N1C[C@H](CC(C)C)N1C[C@H](Cc2ccccc2)NC1=N falls below 5 µM? Thanks.
Ans. y

Qu. API: query returns whether the compound falls strictly under 5 µM in Ki. Query: Cc1cc(O)cc(C)c1C[C@H]1CNC(=N)N1C[C@H](Cc1ccc(O)cc1)N1C[C@H](CC(C)C)NC1=N
Ans. y
